Field: viability, T/C. Provide a value for each of the compounds that follow.
# System: 361931-004-R-J1-PDC multicell spheroid viability;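 note: spheroids exposed to agents for seven days before readout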
# experimentalProtocol: Anticancer human tumor 361931-004-R-J1-PDC patient-derived colon adenocarcinoma cell line growth inhibition [PI3K]
# testSettings: second compound 0.00316 µM; first compound 1 µM; stronger effect = lower value

Examples with answers:
// query Which viability, T/C is listed for Cn1nccc1Nc1nccc(-c2ccn(C(CO)c3ccc(Cl)c(F)c3)c(=O)c2)n1 (stereo not given) + COc1c(OCCCN2CCOCC2)ccc2c3n(c(=NC(=O)c4cnc(N)nc4)nc12)CCN3 ?
// result 86.3%

// query Which viability, T/C is listed for C#Cc1c(F)ccc2cc(O)cc(-c3ncc4c(N5CC6CCC(C5)N6)nc(OCC56CCCN5CC(F)C6)nc4c3F)c12 (stereo not given) + CC(Nc1ccc2c(c1)OCCn1cc(N3C(=O)OCC3C(F)F)nc1-2)C(N)=O ?
// result 100%

// query Which viability, T/C is listed for CC(C)NCC(C(=O)N1CCN(c2ncnc3c2C(C)CC3O)CC1)c1ccc(Cl)cc1 (stereo not given) + CC(Nc1ccc2c(c1)OCCn1cc(N3C(=O)OCC3C(F)F)nc1-2)C(N)=O ?
// result 55.2%

// query Which viability, T/C is listed for CC1(C)CCC(CN2CCN(c3ccc(C(=O)NS(=O)(=O)c4ccc(NCC5CCOCC5)c([N+](=O)[O-])c4)c(Oc4cnc5[nH]ccc5c4)c3)CC2)=C(c2ccc(Cl)cc2)C1 + COc1c(OCCCN2CCOCC2)ccc2c3n(c(=NC(=O)c4cnc(N)nc4)nc12)CCN3 ?
// result 104%

New cases:
// query Which viability, T/C is listed for CC(Cn1ccc(-c2ccc(C#N)c(Cl)c2)n1)NC(=O)c1cc(C(C)O)[nH]n1 (stereo not given) + COc1c(OCCCN2CCOCC2)ccc2c3n(c(=NC(=O)c4cnc(N)nc4)nc12)CCN3 ?
// result 103%
